Below, each of the molecules is paired with its reported pIC50 value.
- subject of test: human full-length MKNK1 (Homo sapiens (Human), UniProt Q9BUB5, T344D)
- Sequence (Q9BUB5 other isoform, or with tags, fused parts or gaps T344D): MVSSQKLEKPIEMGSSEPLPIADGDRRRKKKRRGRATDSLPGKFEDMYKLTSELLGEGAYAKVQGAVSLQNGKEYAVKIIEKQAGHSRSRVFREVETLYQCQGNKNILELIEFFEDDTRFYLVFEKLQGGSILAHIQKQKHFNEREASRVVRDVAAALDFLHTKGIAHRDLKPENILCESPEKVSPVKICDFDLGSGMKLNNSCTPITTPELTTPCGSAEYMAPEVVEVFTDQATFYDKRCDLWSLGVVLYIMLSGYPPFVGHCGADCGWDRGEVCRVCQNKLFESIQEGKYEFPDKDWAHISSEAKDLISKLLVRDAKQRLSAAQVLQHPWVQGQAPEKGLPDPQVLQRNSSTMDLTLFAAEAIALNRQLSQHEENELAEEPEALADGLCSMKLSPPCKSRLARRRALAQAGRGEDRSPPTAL
- test: MKNK1 kinase high ATP assay (TR-FRET)
- Assay type: biochemical
- experimental context: high ATP (2 mM), 15 min preincubation with enzyme; read-out: MKNK1 IC50
As a rule, pIC50 stands for the negative log10 of the concentration, concentration in M.

These solved cases illustrate the format of a correct answer.
- smiles representation: "CN(C)[C@H]1CCN(C(=O)[C@H]2CCc3c(sc4ncnc(Nc5cc6ccnn6cc5Cl)c34)C2)C1"
  quantity name: "pIC50"
  reported: 9.00
- smiles representation: "C[C@@H]1CN(C(=O)[C@H]2CCc3c(sc4ncnc(Nc5cc6ccnn6cc5Cl)c34)C2)C[C@H](C)O1"
  quantity name: "pIC50"
  reported: 8.00

Please examine the following record next.
Quick check: pIC50 of `COc1cn2nccc2cc1Nc1ncnc2sc3c(c12)CC[C@H](C(=O)N1CCOCC1)C3` ?
9.00

* * *

- subject of test: human full-length MKNK1 (Homo sapiens (Human), UniProt Q9BUB5, T344D)
- test: MKNK1 kinase high ATP assay (TR-FRET)
- Type: biochemical
- experimental context: high ATP (2 mM), 15 min preincubation with enzyme; read-out: MKNK1 IC50
Below, each of the molecules is paired with its reported pIC50 value.
As a rule, pIC50 stands for the negative log10 of the concentration, concentration in M.

These solved cases illustrate the format of a correct answer.
- molecule: "O=C([C@H]1CCc2c(sc3ncnc(Nc4ccn5nccc5c4)c23)C1)N1CC2CC2C1 (stereo partly drawn) [Example 12]"
  pIC50: 7.62
- molecule: "COc1cn2nccc2cc1Nc1ncnc2sc3c(c12)CC[C@H](C(=O)N1C[C@@H]2C[C@H]1CN2C)C3 [Example 121]"
  pIC50: 9.00

Please examine the following record next.
# value lookup — system human full-length MKNK1 (Homo sapiens (Human), UniProt Q9BUB5, T344D), readout pIC50, item CN(CC(F)F)C(=O)[C@H]1CCc2c(sc3ncnc(Nc4cc5ccnn5cc4Cl)c23)C1 [Example 47]
7.74

* * *

Below, each of the compounds is paired with its reported IC50 value.
- subject of test: human full-length MKNK1 (Homo sapiens (Human), UniProt Q9BUB5, T344D)
- test: MKNK1 kinase high ATP assay (TR-FRET)
- Format: biochemical
- experimental context: high ATP (2 mM), 15 min preincubation with enzyme; read-out: MKNK1 IC50
Use nM as the unit, but write only the number.

- smiles representation: "CN(C)C(=O)CN(C)C(=O)[C@H]1CCc2c(sc3ncnc(Nc4ccn5nccc5c4)c23)C1"
  IC50, nM: 14

Please examine the following record next.
# value lookup — system human full-length MKNK1 (Homo sapiens (Human), UniProt Q9BUB5, T344D), readout IC50, item `CN(C)C(=O)[C@H]1CCc2c(sc3ncnc(Nc4cc5ccnn5cc4Cl)c23)C1`
12

* * *

- subject of test: human full-length MKNK1 (Homo sapiens (Human), UniProt Q9BUB5, T344D)
- test: MKNK1 kinase high ATP assay (TR-FRET)
- Type: biochemical
- experimental context: high ATP (2 mM), 15 min preincubation with enzyme; read-out: MKNK1 IC50
pIC50: −log10 of the molar value.
Below, each of the molecules is paired with its reported pIC50 value.

- molecule: "COc1cn2nccc2cc1Nc1ncnc2sc3c(c12)CC[C@H](C(=O)N1CCN(CCN(C)C)CC1)C3 [Example 114]"
  pIC50: "> 9.00"

Quick check: pIC50 of COc1cn2nccc2cc1Nc1ncnc2sc3c(c12)CC[C@H](C(=O)N1CC[C@H](N(C)C)C1)C3 [Example 107] ?
> 9.00

Quick check: pIC50 of COCCN(CCOC)C(=O)[C@H]1CCc2c(sc3ncnc(Nc4cc5ccnn5cc4OC)c23)C1 [Example 119] ?
> 9.00
